Test system: Exophiala dermatitidis CA01
Assay: Broth microdilution chequerboard analysis of Lynovex (NM001) in combination with clinical antifungals
Type: cell-based
Settings: MEAN; in combination with Lynovex (NM001); 144 h, 35° C.
readout: Antifungal MIC50 in Combination (µg/mL)

molecule="C[C@@H]1[C@H](O)[C@@H](C)/C=C/C=C/C=C/C=C/C=C/C=C/C=C/[C@H](O[C@@H]2O[C@H](C)[C@@H](O)[C@H](N)[C@@H]2O)C[C@@H]2O[C@](O)(C[C@@H](O)C[C@@H](O)[C@H](O)CC[C@@H](O)C[C@@H](O)CC(=O)O[C@H]1C)C[C@H](O)[C@H]2C(=O)O [Amphotericin B]" readout="Antifungal MIC50 in Combination" value_units=µg/mL reading=0.23
molecule="CC[C@H](C)C[C@H](C)CCCCCCCCC(=O)N[C@H]1C[C@@H](O)[C@@H](NCCN)NC(=O)[C@@H]2[C@@H](O)CCN2C(=O)[C@H]([C@H](O)CCN)NC(=O)[C@H]([C@H](O)[C@@H](O)c2ccc(O)cc2)NC(=O)[C@@H]2C[C@@H](O)CN2C(=O)[C@H]([C@@H](C)O)NC1=O [Caspofungin]" readout="Antifungal MIC50 in Combination" value_units=µg/mL reading=6.51

A. CCC(C)n1ncn(-c2ccc(N3CCN(c4ccc(OCC5COC(Cn6cncn6)(c6ccc(Cl)cc6Cl)O5)cc4)CC3)cc2)c1=O (stereo not shown) [Itraconazole]
B. OC(Cn1cncn1)(Cn1cncn1)c1ccc(F)cc1F [Fluconazole]
Request: Lab notebook, comparison: A versus B , higher Antifungal MIC50 in Combination goes to which? # reply format: chosen label
Response: B
(B: 98 µg/mL, A: 0.27 µg/mL)
